Numbers sourced from patent US20160264650A1.

target: T1, Clostridium difficile toxin B, soluble full-length (TechLab) (Clostridium difficile, UniProt P18177 2-2366); assay: SPR Biacore T200, 37C, mAb capture
T1 construct: also called tcdB
T1 sequence (P18177 2-2366 limits assumed): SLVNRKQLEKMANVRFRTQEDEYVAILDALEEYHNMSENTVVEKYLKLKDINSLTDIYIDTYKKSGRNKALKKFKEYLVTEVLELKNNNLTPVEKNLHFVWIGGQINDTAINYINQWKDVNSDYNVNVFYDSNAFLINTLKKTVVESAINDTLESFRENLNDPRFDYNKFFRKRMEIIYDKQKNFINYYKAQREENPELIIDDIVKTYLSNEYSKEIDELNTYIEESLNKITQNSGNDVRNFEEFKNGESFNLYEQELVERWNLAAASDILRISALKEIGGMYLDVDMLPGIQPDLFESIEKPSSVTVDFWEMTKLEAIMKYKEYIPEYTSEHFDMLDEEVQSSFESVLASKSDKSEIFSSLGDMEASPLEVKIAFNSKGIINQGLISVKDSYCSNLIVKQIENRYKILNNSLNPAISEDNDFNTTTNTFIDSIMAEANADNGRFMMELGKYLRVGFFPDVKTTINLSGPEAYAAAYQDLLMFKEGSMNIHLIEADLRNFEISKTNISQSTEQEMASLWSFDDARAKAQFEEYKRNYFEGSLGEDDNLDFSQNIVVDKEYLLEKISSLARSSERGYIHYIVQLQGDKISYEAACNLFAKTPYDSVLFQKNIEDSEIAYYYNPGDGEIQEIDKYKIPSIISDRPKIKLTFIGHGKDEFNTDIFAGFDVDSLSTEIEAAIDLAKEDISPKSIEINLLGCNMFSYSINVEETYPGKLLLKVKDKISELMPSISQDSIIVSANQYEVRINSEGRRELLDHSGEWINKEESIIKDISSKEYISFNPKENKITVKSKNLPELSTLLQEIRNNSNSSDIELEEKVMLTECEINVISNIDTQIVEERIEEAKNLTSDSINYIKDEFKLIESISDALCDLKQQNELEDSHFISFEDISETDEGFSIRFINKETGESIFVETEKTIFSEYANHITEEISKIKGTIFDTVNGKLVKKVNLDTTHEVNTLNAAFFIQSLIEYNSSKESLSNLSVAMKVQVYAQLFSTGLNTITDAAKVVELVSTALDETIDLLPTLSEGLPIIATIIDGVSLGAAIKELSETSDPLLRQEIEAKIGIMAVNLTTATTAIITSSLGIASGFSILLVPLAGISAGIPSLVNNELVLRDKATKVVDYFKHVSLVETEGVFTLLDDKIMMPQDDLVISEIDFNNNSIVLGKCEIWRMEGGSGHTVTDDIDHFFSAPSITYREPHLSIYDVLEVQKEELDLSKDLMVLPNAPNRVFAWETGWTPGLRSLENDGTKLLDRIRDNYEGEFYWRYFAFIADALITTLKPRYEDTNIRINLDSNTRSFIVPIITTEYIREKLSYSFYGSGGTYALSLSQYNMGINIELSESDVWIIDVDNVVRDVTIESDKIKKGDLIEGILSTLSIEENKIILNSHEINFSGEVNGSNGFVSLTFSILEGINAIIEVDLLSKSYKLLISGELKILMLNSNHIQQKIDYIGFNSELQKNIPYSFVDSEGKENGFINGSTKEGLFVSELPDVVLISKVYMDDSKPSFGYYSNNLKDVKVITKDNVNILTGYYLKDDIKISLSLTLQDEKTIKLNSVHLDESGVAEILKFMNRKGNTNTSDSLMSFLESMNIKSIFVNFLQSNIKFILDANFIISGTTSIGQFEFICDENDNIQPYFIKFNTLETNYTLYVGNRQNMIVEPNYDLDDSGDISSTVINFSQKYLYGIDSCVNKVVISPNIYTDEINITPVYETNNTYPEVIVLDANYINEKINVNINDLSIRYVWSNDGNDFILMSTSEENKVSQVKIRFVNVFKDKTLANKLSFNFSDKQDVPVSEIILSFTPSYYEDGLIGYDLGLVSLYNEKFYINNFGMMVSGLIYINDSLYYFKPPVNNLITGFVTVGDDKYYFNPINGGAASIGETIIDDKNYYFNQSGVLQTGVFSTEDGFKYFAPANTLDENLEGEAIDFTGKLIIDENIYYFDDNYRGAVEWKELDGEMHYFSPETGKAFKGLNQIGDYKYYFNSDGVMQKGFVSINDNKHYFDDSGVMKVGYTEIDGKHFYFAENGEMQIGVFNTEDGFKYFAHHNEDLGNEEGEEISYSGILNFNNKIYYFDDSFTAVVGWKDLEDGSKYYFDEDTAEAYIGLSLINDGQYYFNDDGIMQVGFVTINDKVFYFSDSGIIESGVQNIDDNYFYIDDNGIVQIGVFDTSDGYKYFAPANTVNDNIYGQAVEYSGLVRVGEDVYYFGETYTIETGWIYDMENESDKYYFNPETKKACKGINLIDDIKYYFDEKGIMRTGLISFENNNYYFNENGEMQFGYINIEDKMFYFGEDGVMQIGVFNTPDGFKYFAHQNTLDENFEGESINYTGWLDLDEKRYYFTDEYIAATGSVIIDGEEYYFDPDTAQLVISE
Parameter: kon (M⁻¹ s⁻¹)
Your answer should be a plain number; it is taken to be in M⁻¹ s⁻¹.

>>> meas_value("H1H3347P (antibody, V domains shown) VH: EVQLVESGGGLVQPGGSLRLSCVASGFTFTSYAMSWVRQAPGRGLQWVSAIGGSGDSIYYADSVKGRFTISRDNSKNTLYLQMDSLRAEDTAVYYCARGWELLNYWGQGTLVTVSS VL: DIQMTQSPSSLSASVGDRVTITCRASQDIGNFLAWFQQKPGKAPKSLIYAASSLKSGVPSKISGSGSGTDFTLTINSLQPEDFATYYCQQYNIYPPTFGPGTKVDIKR")
339000
>>> meas_value("H1H3343P (antibody, V domains shown) VH: EVQLVESGGGLVQPGGSLRLSCVASGFNFRIYAMSWVRQAPGKGPEWVSGISGSGDNTYYAASVKGRFTVSRDNSKNTLYLQMTSLRAEDTAVFYCARGWELLNYWGQGTLVTVSS VL: DIQMTQSPSSLSASVGDRVTITCRASLDIGNFLAWFQQKPGTAPKSLIYSASSLQTGVPSKFSGSGSGTDFTLTISSLQPEDFATYYCQQYNSYPPTFGPGTKVDIKR")
284000
>>> meas_value("H1H3411P (antibody, V domains shown) VH: EVQLVESGGGLVQPGGSLRLSCAASGFTFSRYGMNWVRQAPGKGLEWVSAISGSGGSTYHADSVKGRFTISRDNSKNTLYLQMNSLRAADTAIYFCASYNWNDGVDVWGQGTTVTVS VL: DIQMTQSPSSVSASIGDRVTITCRASQGISNWLAWYQQKPGKAPKLLIYGASSLQSGVSSRFSGSGSGTDFTLTIISLQPEDFATYYCQQANSFPYTFGQGTKLEIKR")
235000
>>> meas_value("H1H3344P (antibody, V domains shown) VH: EVQLVESGGGLVQPGGSLRLSCAASGFTFKIYAMSWVRQGPGKGLEWVSAISGNGDKTYYTDSVQGRFTISRDNSKNTLFLQMNSLRAEDTAIYYCARGWELLNYWGQGTLVTVSS VL: DIQMTQSPSSLSASIGDRVTITCRASQDISNSLAWFQQKPGKAPKSLIYAASSLQSGVPSRFSGSGSGTDFTLTISSLQPEDFATYYCQQYIPFPPTFGPGTKVDIKR")
204000

Read the next record carefully.
Entry H1H3339P (antibody, V domains shown) VH: EVQLVESGGGLVQPGGSLRLSCAVSGFTFSIYAMSWVRQAPGKGLEWVSAISGSGDKTYYADSVKGRFTISRDNSKNTLYLQMNSLRAEDTAVFYCARGWELLNYWGQGTLVTVSS VL: DIQMTQSPSSLSASVGDRVTITCRASLDISNFLAWFQQKPGTAPKSLIYSASSLRTGVPSKFSGSGSGTDFTLTISSLQPEDFATYYCQQYSSYPPTFGPGTKVDIKR has what kon?
276000
